# Target Or System: VIM2 (Escherichia coli)
# Experiment Summary: biochemical
# Assay type: biochemical, P. aeruginosa
# Experimental Context: competitive-inhibition fit, nitrocefin substrate
Test Readout: Ki (nM)
Answers are plain numbers, in nM.

O=C(O)c1cccc(=S)n1O | 13

Next compound, Ki to be filled in.
Ki reported for this compound "[Na+].[O-]n1ccccc1=S" : 217
